# ASSAY PROTOCOL: self-splicing fitness, log relative to wild type (ln ratio); higher = more splicing; Tetrahymena group I intron in knt gene, E. coli kanamycin selection, DiMSum; sequences stand for … in CUCUCU…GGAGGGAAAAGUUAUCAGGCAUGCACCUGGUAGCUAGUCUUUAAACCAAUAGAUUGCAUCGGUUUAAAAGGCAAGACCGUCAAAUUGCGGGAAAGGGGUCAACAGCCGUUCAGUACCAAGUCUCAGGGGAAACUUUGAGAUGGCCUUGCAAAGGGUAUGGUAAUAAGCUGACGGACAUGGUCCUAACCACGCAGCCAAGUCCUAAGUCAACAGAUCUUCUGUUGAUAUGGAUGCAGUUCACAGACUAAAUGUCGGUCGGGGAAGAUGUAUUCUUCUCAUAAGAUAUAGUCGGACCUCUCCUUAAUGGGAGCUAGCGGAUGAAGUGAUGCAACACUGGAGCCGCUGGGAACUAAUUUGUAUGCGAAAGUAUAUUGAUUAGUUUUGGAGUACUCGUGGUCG;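 also: selection with 25 µg/mL kanamycin versus none on LB agar overnight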
# STUDY CONDITIONS: 37 °C
READOUT LABEL: self-splicing fitness (ln)
Give your answer as a number; write no unit.

Please list self-splicing fitness (ln) recorded for the sequence CAUGAGCAAUAUUACGCGGG -2.46

Please list self-splicing fitness (ln) recorded for the sequence ACGAAGCAAUAUUACGUGAA -1.64

Please list self-splicing fitness (ln) recorded for the sequence AUCAAGCAAUAUUACGCUGA -1.46

Please list self-splicing fitness (ln) recorded for the sequence GACAAGCAAUAUUACGGUAG -0.222

Please list self-splicing fitness (ln) recorded for the sequence AAGAAGCAAUAUUACGUUGC -3.65

Please list self-splicing fitness (ln) recorded for the sequence GAGGAGCAAUAUUACGUUUA -1.84

Please list self-splicing fitness (ln) recorded for the sequence CUGCAGCAAUAUUACGCUCU -2.27

Please list self-splicing fitness (ln) recorded for the sequence ACGUAGCAAUAUUACGCUAU -3.11

Please list self-splicing fitness (ln) recorded for the sequence AUGUAGCAAUAUUACGUGCA -1.01

Please list self-splicing fitness (ln) recorded for the sequence GCUUAGCAAUAUUACGUCGC -0.764

Please list self-splicing fitness (ln) recorded for the sequence UGAUAGCAAUAUUACGUCUA -0.107

Please list self-splicing fitness (ln) recorded for the sequence UGAUAGCAAUAUUACGAGCA -0.0253

Please list self-splicing fitness (ln) recorded for the sequence AUAAAGCAAUAUUACGACCA 0.00323

Please list self-splicing fitness (ln) recorded for the sequence UCGAAGCAAUAUUACGGAUC -2.64

Please list self-splicing fitness (ln) recorded for the sequence UCAAAGCAAUAUUACGCUAU -1.41

Please list self-splicing fitness (ln) recorded for the sequence AACUAGCAAUAUUACGACUG -0.989

Please list self-splicing fitness (ln) recorded for the sequence AUGAAGCAAUAUUACGCGUA -0.226

Please list self-splicing fitness (ln) recorded for the sequence UGGCAGCAAUAUUACGCGCA 0.284

Please list self-splicing fitness (ln) recorded for the sequence CCUGAGCAAUAUUACGGGUA -2.07

Please list self-splicing fitness (ln) recorded for the sequence AGACAGCAAUAUUACGGAGA -2.55

Please list self-splicing fitness (ln) recorded for the sequence CUUAAGCAAUAUUACGUAGU -2.3

Please list self-splicing fitness (ln) recorded for the sequence GCAUAGCAAUAUUACGGUAC -1.47

Please list self-splicing fitness (ln) recorded for the sequence ACAUAGCAAUAUUACGAAGA -2.72

Please list self-splicing fitness (ln) recorded for the sequence AUAAAGCAAUAUUACGUGUC -3.4

Please list self-splicing fitness (ln) recorded for the sequence UGUGAGCAAUAUUACGCCGU -1.71

Please list self-splicing fitness (ln) recorded for the sequence UACCAGCAAUAUUACGGUGU -2.36

Please list self-splicing fitness (ln) recorded for the sequence ACGUAGCAAUAUUACGCCCG -0.474

Please list self-splicing fitness (ln) recorded for the sequence UGACAGCAAUAUUACGGCGC -1.25

Please list self-splicing fitness (ln) recorded for the sequence AGGAAGCAAUAUUACGUCAA -3.71

Please list self-splicing fitness (ln) recorded for the sequence UCUUAGCAAUAUUACGGGCC -1.41

Please list self-splicing fitness (ln) recorded for the sequence GUGUAGCAAUAUUACGCCAC -1.07

Please list self-splicing fitness (ln) recorded for the sequence CUGCAGCAAUAUUACGCGCC -2.17

Please list self-splicing fitness (ln) recorded for the sequence AAUCAGCAAUAUUACGUCCU 0.632

Please list self-splicing fitness (ln) recorded for the sequence CGUAAGCAAUAUUACGAUUG -0.605

Please list self-splicing fitness (ln) recorded for the sequence GCAAAGCAAUAUUACGUGGG -3.07

Please list self-splicing fitness (ln) recorded for the sequence GCUAAGCAAUAUUACGUUAC -1.01

Please list self-splicing fitness (ln) recorded for the sequence UUAGAGCAAUAUUACGUAGU -3.47

Please list self-splicing fitness (ln) recorded for the sequence GCGCAGCAAUAUUACGCUAA -1.06

Please list self-splicing fitness (ln) recorded for the sequence GCUGAGCAAUAUUACGCCCG -0.207

Please list self-splicing fitness (ln) recorded for the sequence UACUAGCAAUAUUACGCUGG -1.78

Please list self-splicing fitness (ln) recorded for the sequence AUAUAGCAAUAUUACGACAC -0.312

Please list self-splicing fitness (ln) recorded for the sequence GGGUAGCAAUAUUACGACGA -0.379

Please list self-splicing fitness (ln) recorded for the sequence UCGUAGCAAUAUUACGUACU -1.27

Please list self-splicing fitness (ln) recorded for the sequence GUAGAGCAAUAUUACGAACA -0.783

Please list self-splicing fitness (ln) recorded for the sequence GAUUAGCAAUAUUACGGGUA -1.04

Please list self-splicing fitness (ln) recorded for the sequence GGCCAGCAAUAUUACGACAU -0.437

Please list self-splicing fitness (ln) recorded for the sequence UCGAAGCAAUAUUACGUACG 0.00936

Please list self-splicing fitness (ln) recorded for the sequence UUUGAGCAAUAUUACGUCCU -1.77

Please list self-splicing fitness (ln) recorded for the sequence AUUGAGCAAUAUUACGGCCC 0.679

Please list self-splicing fitness (ln) recorded for the sequence GUAAAGCAAUAUUACGUCAG -1.83

Please list self-splicing fitness (ln) recorded for the sequence CUUCAGCAAUAUUACGAUUC -1.85

Please list self-splicing fitness (ln) recorded for the sequence CCGGAGCAAUAUUACGCUGC -2.04

Please list self-splicing fitness (ln) recorded for the sequence GUUAAGCAAUAUUACGUUAU -0.968

Please list self-splicing fitness (ln) recorded for the sequence ACACAGCAAUAUUACGUACU 0.175

Please list self-splicing fitness (ln) recorded for the sequence CCCAAGCAAUAUUACGAUCG -2.93

Please list self-splicing fitness (ln) recorded for the sequence UACUAGCAAUAUUACGUCCU -1.26

Please list self-splicing fitness (ln) recorded for the sequence UUAUAGCAAUAUUACGUAGA -0.707

Please list self-splicing fitness (ln) recorded for the sequence UAGCAGCAAUAUUACGCUAU -3.49

Please list self-splicing fitness (ln) recorded for the sequence GCUUAGCAAUAUUACGCUUG -1.74

Please list self-splicing fitness (ln) recorded for the sequence GGACAGCAAUAUUACGGUGC -0.8

Please list self-splicing fitness (ln) recorded for the sequence CAUCAGCAAUAUUACGUCGU -1.19

Please list self-splicing fitness (ln) recorded for the sequence GACAAGCAAUAUUACGGAUG -1.75

Please list self-splicing fitness (ln) recorded for the sequence UCUUAGCAAUAUUACGACGU -0.505

Please list self-splicing fitness (ln) recorded for the sequence UAUCAGCAAUAUUACGCAAA -0.755

Please list self-splicing fitness (ln) recorded for the sequence AUCCAGCAAUAUUACGGGAA -0.654

Please list self-splicing fitness (ln) recorded for the sequence AAAGAGCAAUAUUACGUAUU -1.2

Please list self-splicing fitness (ln) recorded for the sequence CGACAGCAAUAUUACGCUGU -2.55

Where these numbers come from: the supplement of paper PMC7877785
